These entries and their values trace back to PubChem BioAssay (NCATS).

- METHOD NOTES: Primary qHTS for inhibitors of MERS-S pseudo-typed particle cell entry (AID 1479149); note: nearly all actives have a fitted effect of over 60% in size
- TEST SETTINGS: MERS-S pseudotyped particle entry, luciferase; series mostly up to 57.1 µM
Records with an inconclusive call do not appear. Calls of active or inactive are those of the source. Calls come from the whole dose curve. Bridge positions count the residues as written; N and C are the ends. Square brackets hold non-standard residues; d marks the D form. Peptide text beside a SMILES is read from it. hArg = N=C(N)NCCCC[C@H](N)C(=O)O; Mpa = O=C(O)CCS
Respond with a class label; see active, inactive

[
  {
    "COMPOUND": "NC(=O)[C@@H]1CSSCCC(=O)N[C@@H](CCCCN=C(N)N)C(=O)NCC(=O)N[C@@H](CC(=O)O)C(=O)N[C@@H](Cc2c[nH]c3ccccc23)C(=O)N2CCC[C@H]2C(=O)N1 ([Mpa][hArg]GDWPC-NH2; disulfide 1-7)",
    "CLASS NAME": "inactive"
  },
  {
    "COMPOUND": "COc1cccc(N(C)C(=S)Oc2ccc3c(c2)CCCC3)n1",
    "CLASS NAME": "inactive"
  },
  {
    "COMPOUND": "CC(C)(Oc1ccc(CCNC(=O)c2ccc(Cl)cc2)cc1)C(=O)O",
    "CLASS NAME": "inactive"
  },
  {
    "COMPOUND": "CC(=O)Nc1ccc(S(=O)(=O)Nc2ccc([N+](=O)[O-])cc2)cc1",
    "CLASS NAME": "inactive"
  },
  {
    "COMPOUND": "O=c1[nH]cnc2c1ncn2[C@@H]1O[C@H](CO)[C@@H](O)[C@H]1O",
    "CLASS NAME": "inactive"
  },
  {
    "COMPOUND": "O=C(O)CCC(=O)OC[C@@H](NC(=O)C(Cl)Cl)[C@H](O)c1ccc([N+](=O)[O-])cc1",
    "CLASS NAME": "inactive"
  },
  {
    "COMPOUND": "CC(C(O)c1ccc(O)cc1)N1CCC(Cc2ccccc2)CC1 (configuration not stated)",
    "CLASS NAME": "inactive"
  },
  {
    "COMPOUND": "COC1=C(OC)C(=O)C(CCCCCCCCCCO)=C(C)C1=O",
    "CLASS NAME": "inactive"
  },
  {
    "COMPOUND": "CCCCC/C=C\\C/C=C\\CCCCCCCC(=O)NC(C)c1ccccc1 (configuration not stated)",
    "CLASS NAME": "inactive"
  },
  {
    "COMPOUND": "c1ccc([C@H]2CN3CCSC3=N2)cc1",
    "CLASS NAME": "inactive"
  }
]

Request: Please let me know the test result on file for CC(C)N=C(N)/N=C(\N)Nc1ccc(Cl)cc1 .
Result: inactive

Request: Give the logged outcome of this assay for the following compound: O=C(O)CCC(=O)c1ccc(-c2ccccc2)cc1
Result: inactive

Request: State the result this test recorded for CCCCC1C(=O)NC(=O)N(C2CCCCC2)C1=O (configuration not stated) .
Result: inactive

Request: How did this test come out for C[C@@H]1CN(C2CCC(C#N)(c3ccc(F)cc3)CC2)CC[C@]1(C(=O)O)c1ccccc1 (some centres not stated) ?
Result: inactive

Request: Record request — test call for CC(C)Cc1ccc(C(C)C(=O)OCc2ccccn2)cc1 (configuration not stated)
Result: inactive

Request: What is the recorded call for this compound in the test? C[C@H](N)C(=O)N[C@@H](C)C(=O)NC1[C@H]2CN(c3nc4c(cc3F)c(=O)c(C(=O)O)cn4-c3ccc(F)cc3F)C[C@@H]12 (some centres not stated)
Result: inactive

Request: Could you check what this test reported for CCCCC(CC)COC(=O)C(C#N)=C(c1ccccc1)c1ccccc1 (configuration not stated) ?
Result: inactive

Request: Please share the test call associated with Cc1c(F)cc2c(=O)c(C(=O)O)cn3c2c1CCC3C (configuration not stated) .
Result: inactive

Request: What is the recorded call for this compound in the test? NC(=O)Cc1cccc(C(=O)c2ccccc2)c1N
Result: inactive

Request: Dear all, I need the recorded test outcome for c1ccc(CC2=NCCN2)cc1 , thank you.
Result: inactive

Request: Kindly provide the recorded test outcome for the following compound: COc1ccc(CN(CCN(C)C)c2ccccn2)cc1
Result: inactive

Request: // return assay outcome for C[N+]12CCC(CC1)C(OC(=O)C(O)(c1ccccc1)c1ccccc1)C2 (configuration not stated)
Result: inactive

Request: Which result was noted for this compound in the test: NC(=O)CN1CCCC1=O
Result: inactive

Request: Which outcome did this test record for the compound C1CCN2C[C@@H]3C[C@@H](CN4CCCC[C@@H]34)[C@H]2C1 ?
Result: inactive
